So I've got a bunch of molecules here, and I need their CIavg (weighted average CI) values.
system: L5178YMDR cells; test: Combination assay with doxorubicin (checkerboard microplate method, MTT); format: cell-based, mouse; details: drug ratio 92.8:1, with doxorubicin, (CI50 + 2CI75 + 3CI90)/6
One number for each entry.

Example results:
compound string	result value
CC(=O)N[C@H]1CC=C2C3=CC(=O)[C@@H]4C[C@H]5OC(C)(C)O[C@H]5C[C@]4(C)[C@H]3CC[C@@]21C	0.50
CC(=O)[C@H]1CC[C@@]2(F)C3=CC(=O)[C@@H]4C[C@H]5OC(C)(C)O[C@H]5C[C@]4(C)[C@H]3CC[C@]12C	0.49
CC(=O)[C@H]1CC=C2C3=CC(=O)[C@@H]4C[C@H]5OC(C)(C)O[C@H]5C[C@]4(C)[C@H]3CC[C@@]21C	0.50

In the following, a different molecule is considered.
Answer with CIavg (weighted average CI) of "CC(=O)N[C@H]1CC[C@@]2(F)C3=CC(=O)[C@@H]4C[C@H]5OC(C)(C)O[C@H]5C[C@]4(C)[C@H]3CC[C@]12C" measured for L5178YMDR cells.
0.82
